molecular target: human GnRH receptor (Homo sapiens); construct: expressed in transfected cells; host or cells: CHO (Chinese Hamster Ovary) cells; experiment: 125I-leuprorelin binding assay, human GnRH receptor CHO cell membrane fraction; details: 10 nM of the testing compound, room temperature for 1 hour, read-out: Binding inhibitory ratio (%)
Sequence (P30968 whole entry): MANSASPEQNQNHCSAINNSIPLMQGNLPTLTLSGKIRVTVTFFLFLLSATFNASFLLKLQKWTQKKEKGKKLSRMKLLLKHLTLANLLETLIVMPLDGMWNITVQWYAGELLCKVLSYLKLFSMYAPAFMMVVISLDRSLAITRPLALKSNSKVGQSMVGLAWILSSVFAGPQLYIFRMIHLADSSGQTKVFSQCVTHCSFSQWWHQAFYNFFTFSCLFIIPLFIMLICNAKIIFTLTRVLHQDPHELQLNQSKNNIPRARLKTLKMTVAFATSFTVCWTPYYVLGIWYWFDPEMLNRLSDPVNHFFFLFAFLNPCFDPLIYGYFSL
readout_kind: inhibition at 0.01 µM
Your reply should be a number followed by the unit it is expressed in.

Solved cases below.
* NC(=O)c1cccc2[nH]c(=O)n(-c3cc(S(=O)(=O)N4CCCc5ccccc54)ccc3Cl)c(=O)c12 | 94%
* O=c1[nH]c2cccc(CO)c2c(=O)n1-c1cc(S(=O)(=O)N2CCCCc3ccccc32)sc1Cl | 94.8%
* Cc1ccccc1N(C)C(=O)c1cc(-n2c(=O)[nH]c3cccc(CO)c3c2=O)c(Cl)s1 | 82.2%

Field: next compound
(Q) Specify measured inhibition at 0.01 µM for `CC(C)(O)c1cccc2[nH]c(=O)n(-c3cc(S(=O)(=O)N4CCCc5ccccc54)ccc3Cl)c(=O)c12` .
(A) 99.9%

* * *

target: human GnRH receptor (Homo sapiens); construct: expressed in transfected cells; host or cells: CHO (Chinese Hamster Ovary) cells; test: 125I-leuprorelin binding assay, human GnRH receptor CHO cell membrane fraction; settings: 10 nM of the testing compound, room temperature for 1 hour, read-out: Binding inhibitory ratio (%)
readout_kind: inhibition at 0.01 µM (%)
Field: numeric (%). Do not append units.

Some solved cases for reference:
* CN(C(=O)c1cc(-n2c(=O)[nH]c3cccc(CO)c3c2=O)c(Cl)s1)c1ccccc1Cl | 91.5
* COC(=O)c1cccc2[nH]c(=O)n(-c3cc(S(=O)(=O)N4CCCc5ccccc54)ccc3Cl)c(=O)c12 | 98
* Cc1cccc(N(C)C(=O)c2cc(-n3c(=O)[nH]c4cccc(CO)c4c3=O)c(Cl)s2)c1 | 95.6

We next turn to a different molecule, shown below.
(Q) Write inhibition at 0.01 µM of `O=c1[nH]c2ccccc2c(=O)n1-c1cc(S(=O)(=O)N2CCCc3ccccc32)ccc1Cl` ; system used: human GnRH receptor (Homo sapiens)
(A) 88.5
